Activity: recorded values
targetOrTestSystem: Major prion protein (Mus musculus) (UniProt P04925)
Sequence (P04925 whole entry): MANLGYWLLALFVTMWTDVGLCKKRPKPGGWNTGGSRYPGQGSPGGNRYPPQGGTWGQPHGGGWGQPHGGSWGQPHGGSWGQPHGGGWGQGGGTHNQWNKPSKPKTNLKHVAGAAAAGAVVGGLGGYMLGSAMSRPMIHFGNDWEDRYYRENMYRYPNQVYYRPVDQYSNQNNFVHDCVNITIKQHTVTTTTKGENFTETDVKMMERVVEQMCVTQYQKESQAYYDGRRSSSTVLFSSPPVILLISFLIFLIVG
runDescription: Antiprion activity against mouse recombinant PrP expressed in Fukuoka-1 stain infected mouse GT1-7 cells assessed as remaining PrP-res level at 10 uM after 72 hrs by Western blotting relative to control
Assay type: cell-based

| compound | targetOrTestSystem | unitDescriptor | Activity |
| --- | --- | --- | --- |
| Cc1cccc2cc3c(N)c(C(=O)NC4CCCC4)sc3nc12 | Major prion protein (Mus musculus) (UniProt P04925) | % | 41.9 |
| O=C(CN1C(=O)COc2ccccc21)N1CCCc2ccccc21 | Major prion protein (Mus musculus) (UniProt P04925) | % | 57.5 |
| Cc1cc2cc3c(cc2nc1SCCN1CCCCC1)OCCO3 | Major prion protein (Mus musculus) (UniProt P04925) | % | 47.4 |
| CCC(C)C(NC(=O)c1ccccc1)C(=O)N1CCc2ccccc21 (centres undefined) | Major prion protein (Mus musculus) (UniProt P04925) | % | 36.8 |
| O=C(CSc1nc2ccccc2[nH]1)NC1CCCc2ccccc21 (centres undefined) | Major prion protein (Mus musculus) (UniProt P04925) | % | 64.9 |
| O=C(COC(=O)c1c2c(nc3ccccc13)CCC2)NC1CCCC1 | Major prion protein (Mus musculus) (UniProt P04925) | % | 62.9 |
| O=C(Cc1c[nH]c2ccccc12)NC1CCc2ccccc2C1 (centres undefined) | Major prion protein (Mus musculus) (UniProt P04925) | % | 55.3 |
| CC1CCCCC1NC(=O)COc1ncnc2sc3c(c12)CCC3 (centres undefined) | Major prion protein (Mus musculus) (UniProt P04925) | % | 68.8 |
| O=C(CN1C(=O)NC2(CCCc3ccccc32)C1=O)N1CCCCC1 (centres undefined) | Major prion protein (Mus musculus) (UniProt P04925) | % | 67.1 |
| Cc1cccc2cc(C#N)c(N3CCCN(C(=O)C4CCC4)CC3)nc12 | Major prion protein (Mus musculus) (UniProt P04925) | % | 50.6 |
| CCCCNc1nc2ccccc2n1CC(=O)N1CCc2ccccc21 | Major prion protein (Mus musculus) (UniProt P04925) | % | 37.3 |
| O=C(Cc1coc2cc3c(cc12)CCC3)N1CCc2ccccc21 | Major prion protein (Mus musculus) (UniProt P04925) | % | 63.7 |
| O=C(CCc1nc2ccccc2c(=O)[nH]1)NC1CCCc2ccccc21 (centres undefined) | Major prion protein (Mus musculus) (UniProt P04925) | % | 65 |
| O=C(NCc1ccccn1)C1CC2c3ccccc3C1c1ccccc12 (centres undefined) | Major prion protein (Mus musculus) (UniProt P04925) | % | 54.7 |
| CCCc1nc2ccccc2n1CC(=O)N1CCCc2ccccc21 | Major prion protein (Mus musculus) (UniProt P04925) | % | 67.2 |
| Cc1cccc(NC(=O)N2CCCC2C(=O)NC2CCCC2)c1 (centres undefined) | Major prion protein (Mus musculus) (UniProt P04925) | % | 63.2 |
| Cc1ccc2c(c1)c1c(n2CC(O)CN2CCCCC2)C(=O)CCC1 (centres undefined) | Major prion protein (Mus musculus) (UniProt P04925) | % | 51.3 |
| CN1/C(=C/C(=O)Nc2cccs2)c2ccccc2CC1(C)C | Major prion protein (Mus musculus) (UniProt P04925) | % | 57.4 |
| CC1Cc2ccccc2N1C(=O)COc1ncnc2sccc12 (centres undefined) | Major prion protein (Mus musculus) (UniProt P04925) | % | 67.4 |
| Cc1ccc(NC(=O)CN2C(=O)NC3(CCc4ccccc43)C2=O)cc1 (centres undefined) | Major prion protein (Mus musculus) (UniProt P04925) | % | 150 |
| N#Cc1c(NC(=O)c2cc3c(s2)CCCC3)sc2c1CCCC2 | Major prion protein (Mus musculus) (UniProt P04925) | % | 66.9 |
| O=C1c2cccc3cccc(c23)N1CC(=O)N1CC2CCC1C2 (centres undefined) | Major prion protein (Mus musculus) (UniProt P04925) | % | 65 |
| CC1CCCCN1CC(=O)Nc1sc2c(c1C#N)CCCCC2 (centres undefined) | Major prion protein (Mus musculus) (UniProt P04925) | % | 58.8 |
| O=C(COc1ncnc2ccccc12)NC1CCCc2ccccc21 (centres undefined) | Major prion protein (Mus musculus) (UniProt P04925) | % | 53 |

# credit: ChEMBL document CHEMBL1629590
